# Coaggregation (peptide binding) per entry
ASSAYED SYSTEM: T1, biotinylated p53β peptide (human, also: biotinylated, site not given here)
T1 construct: also called biotinylated p53-aggregating peptide
T1 peptide: ILTIITL
MEASUREMENT PROTOCOL: peptide-binding assay: peptide spots on membrane, biotinylated p53β peptide, streptavidin-HRP
Where no end group is shown, it is not given here.
PROPERTY MEASURED: Coaggregation (peptide binding)

- ILIIVTL (spot-synthesized on membrane; also called p63β; position Nr 16) [P63_HUMAN peptide ILIIVTL]: 92%
- ILLIITD (spot-synthesized on membrane; also called Copine-2 (CPNE2) segment; position Nr 42) [CPNE2_HUMAN peptide ILLIITD]: 111%
- ILTIGTG (spot-synthesized on membrane; also called methionine synthase (METH) segment; position Nr 38) [METH_HUMAN peptide ILTIGTG]: 49.2%
